Where these numbers come from: patent US20150104448A1

- SYSTEM_NAME: T1, Inactive-C1s (Homo sapiens, UniProt P09871)
- T1 construct: proenzyme (pro-C1s); also called pro-C1s
- T1 sequence (single chain, looked up): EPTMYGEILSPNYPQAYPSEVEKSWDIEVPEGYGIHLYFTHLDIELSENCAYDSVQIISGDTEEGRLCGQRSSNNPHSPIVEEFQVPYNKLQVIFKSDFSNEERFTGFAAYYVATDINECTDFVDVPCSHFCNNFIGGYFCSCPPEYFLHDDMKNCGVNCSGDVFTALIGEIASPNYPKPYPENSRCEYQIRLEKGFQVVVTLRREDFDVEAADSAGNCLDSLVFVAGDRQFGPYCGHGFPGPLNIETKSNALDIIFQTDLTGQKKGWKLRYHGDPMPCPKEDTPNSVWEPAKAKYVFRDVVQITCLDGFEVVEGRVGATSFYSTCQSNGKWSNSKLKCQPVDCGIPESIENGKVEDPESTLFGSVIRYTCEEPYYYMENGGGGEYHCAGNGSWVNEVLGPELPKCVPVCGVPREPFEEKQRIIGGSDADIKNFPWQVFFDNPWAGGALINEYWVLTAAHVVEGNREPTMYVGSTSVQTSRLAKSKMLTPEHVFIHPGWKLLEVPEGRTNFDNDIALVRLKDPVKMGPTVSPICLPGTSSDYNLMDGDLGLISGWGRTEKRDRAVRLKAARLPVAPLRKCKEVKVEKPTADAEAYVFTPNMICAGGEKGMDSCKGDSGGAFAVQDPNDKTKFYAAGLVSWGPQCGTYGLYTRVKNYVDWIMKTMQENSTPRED
- MEASUREMENT_NOTES: kinetic binding measurement, method not stated; Table 10, pro-C1s
Item-by-item account of kon
Answer with a number only, understood to be in M⁻¹ s⁻¹.

VH3/Vk2 (antibody, V domains shown, member of group m7; also called VH3/Vκ2; VH variant 3 + Vk variant 2) VH: EVMLVESGGGLVKPGGSLRLSCAASGFTFSNYAMSWVRQAPGKGLEWVATISSGGSHTYYLDSVKGRFTISRDNSKDTLYLQMSSLRAEDTALYYCARLFTGYAMDYWGQGTSVTVSS VL: QIVLTQSPATLSLSPGERATMSCTASSSVSSSYLHWYQQKPGKAPKLWIYSTSNLASGVPSRFSGSGSGTDYTLTISSLQPEDFATYYCHQYYRLPPITFGQGTKLEIK : 1.08e+06
VH1/Vk1 (antibody, V domains shown, member of group m7; also called VH1/Vκ1; VH variant 1 + Vk variant 1) VH: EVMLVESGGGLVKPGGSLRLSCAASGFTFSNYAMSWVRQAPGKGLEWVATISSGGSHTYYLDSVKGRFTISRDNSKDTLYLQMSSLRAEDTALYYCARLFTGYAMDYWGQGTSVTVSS VL: QIVLTQSPAILSLSPGERATMSCTASSSVSSSYLHWYQQKPGKAPKLWIYSTSNLASGVPSRFSGSGSGTFYTLTISSLQAEDFATYYCHQYYRLPPITFGQGTKLEIK : 1.04e+06

What value of kon has been recorded for this entry: VH4/Vk2 (antibody, V domains shown, member of group m7; also called VH4/Vκ2; VH variant 4 + Vk variant 2) VH: EVQLVESGGGLVKPGGSLRLSCAASGFTFSNYAMSWVRQAPGKGLEWVATISSGGSHTYYLDSVKGRFTISRDNSKNTLYLQMNSLRAEDTALYYCARLFTGYAMDYWGQGTLVTVSS VL: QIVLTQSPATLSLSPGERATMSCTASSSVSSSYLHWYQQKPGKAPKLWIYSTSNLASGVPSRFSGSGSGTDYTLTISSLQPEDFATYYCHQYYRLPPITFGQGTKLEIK
1.01e+06
